Tested on: Haemophilus influenzae RD
Test method notes: broth micro-dilution MIC
Type: cell-based
Condition notes: Haemophilus influenzae RD
Experimental: The formula I compounds have in vitro and in vivo activity against Gram-positive pathogenic bacteria. The MIC's were determined using a standard broth micro-dilution assay.
Measured MIC of individual entries

Solved entries:
- Compound: "CC(C)CC(C(=O)NC1C(=O)NC(CC(N)=O)C(=O)NC2C(=O)NC3C(=O)NC(C(=O)NC(C(=O)O)c4cc(O)cc(O)c4-c4cc3ccc4O)C(OC3CC(C)(N)C(O)C(C)O3)c3ccc(c(Cl)c3)Oc3cc2cc(c3OC2OC(CO)C(O)C(O)C2OC2CC(C)(N)C(O)C(C)O2)Oc2ccc(cc2Cl)C1O)N(C)Cc1ccc(-c2ccccc2)cc1 (stereo not drawn)"
  MIC: "> 64 µg/mL"
- Compound: "CNC(CC(C)C)C(=O)NC1C(=O)NC(CC(N)=O)C(=O)NC2C(=O)NC3C(=O)NC(C(=O)NC(C(=O)O)c4cc(O)cc(O)c4-c4cc3ccc4O)C(OC3CC(C)(NCc4ccc(-c5ccc(Cl)cc5)cc4)C(O)C(C)O3)c3ccc(c(Cl)c3)Oc3cc2cc(c3OC2OC(CO)C(O)C(O)C2OC2CC(C)(NCc3ccc(-c4ccc(Cl)cc4)cc3)C(O)C(C)O2)Oc2ccc(cc2Cl)C1O.O=C(O)C(F)(F)F (stereo not drawn)"
  MIC: "> 64 µg/mL"

Switching to the query record.
Exercise: For CNC(CC(C)C)C(=O)NC1C(=O)NC(CC(N)=O)C(=O)NC2C(=O)NC3C(=O)NC(C(=O)NC(C(=O)O)c4cc(O)cc(O)c4-c4cc3ccc4O)C(OC3CC(C)(N)C(O)C(C)O3)c3ccc(c(Cl)c3)Oc3cc2cc(c3OC2OC(CO)C(O)C(O)C2OC2CC(C)(NCc3ccc(Cc4ccccc4)c(OC)c3)C(O)C(C)O2)Oc2ccc(cc2Cl)C1O (stereo not drawn) , what is its reported MIC?
Solution: 32 µg/mL

* * *

Test system: vancomycin-susceptible enterococci
Test method notes: broth micro-dilution, mean geometric MIC
Type: cell-based, Enterococcus faecium and Enterococcus faecalis
Condition notes: enterococci, 24-hour incubation
Reported property: mean geometric MIC, Vancomycin Sensitive Strains (µg/mL)
Give the number; µg/mL is assumed, so skip it.

The following compounds have reported results that may help.
- Compound: "CNC(CC(C)C)C(=O)NC1C(=O)NC(CC(N)=O)C(=O)NC2C(=O)NC3C(=O)NC(C(=O)NC(C(=O)O)c4cc(O)cc(O)c4-c4cc3ccc4O)C(OC3CC(C)(NCc4c5ccccc5c(C)c5ccccc45)C(O)C(C)O3)c3ccc(c(Cl)c3)Oc3cc2cc(c3OC2OC(CO)C(O)C(O)C2OC2CC(C)(NCc3c4ccccc4c(C)c4ccccc34)C(O)C(C)O2)Oc2ccc(cc2Cl)C1O (stereo not drawn)"
  Observed: 1.7
- Compound: "CNC(CC(C)C)C(=O)NC1C(=O)NC(CC(N)=O)C(=O)NC2C(=O)NC3C(=O)NC(C(=O)NC(C(=O)O)c4cc(O)cc(O)c4-c4cc3ccc4O)C(OC3CC(C)(N)C(O)C(C)O3)c3ccc(c(Cl)c3)Oc3cc2cc(c3OC2OC(CO)C(O)C(O)C2OC2CC(C)(NCC(C)=Cc3ccc(C(C)(C)C)cc3)C(O)C(C)O2)Oc2ccc(cc2Cl)C1O (stereo not drawn)"
  Observed: 0.089

Consider the record given below.
Exercise: Record request: mean geometric MIC, Vancomycin Sensitive Strains value, item CNC(CC(C)C)C(=O)NC1C(=O)NC(CC(N)=O)C(=O)NC2C(=O)NC3C(=O)NC(C(=O)NC(C(=O)O)c4cc(O)cc(O)c4-c4cc3ccc4O)C(OC3CC(C)(N)C(O)C(C)O3)c3ccc(c(Cl)c3)Oc3cc2cc(c3OC2OC(CO)C(O)C(O)C2OC2CC(C)(NCc3cccc(Oc4cccc(C(F)(F)F)c4)c3)C(O)C(C)O2)Oc2ccc(cc2Cl)C1O (stereo not drawn) [Compound 203]
Solution: 0.036

* * *

Catalogue of MIC values
Test system: Staphylococcus aureus 447
Test method notes: broth micro-dilution MIC
Assay type: cell-based

Here is how some compounds turned out for MIC.
- Compound: "CNC(CC(C)C)C(=O)NC1C(=O)NC(CC(N)=O)C(=O)NC2C(=O)NC3C(=O)NC(C(=O)NC(C(=O)O)c4cc(O)cc(O)c4-c4cc3ccc4O)C(OC3CC(C)(N)C(O)C(C)O3)c3ccc(c(Cl)c3)Oc3cc2cc(c3OC2OC(CO)C(O)C(O)C2OC2CC(C)(NCc3ccc(-c4ccccc4)cc3)C(O)C(C)O2)Oc2ccc(cc2)C1O (stereo not drawn) [Compound 185]"
  Reported property: "MIC"
  Observed: "≤ .06 µg/mL"
- Compound: "COc1ccc2nc(-c3ccccc3)cc(CNC3(C)CC(OC4C(Oc5c6cc7cc5Oc5ccc(cc5Cl)C(OC5CC(C)(N)C(O)C(C)O5)C5NC(=O)C(NC(=O)C7NC(=O)C(CC(N)=O)NC(=O)C(NC(=O)C(CC(C)C)N(C)Cc7cc(-c8ccccc8)nc8ccc(OC)cc78)C(O)c7ccc(c(Cl)c7)O6)c6ccc(O)c(c6)-c6c(O)cc(O)cc6C(C(=O)O)NC5=O)OC(CO)C(O)C4O)OC(C)C3O)c2c1 (stereo not drawn) [Compound 277]"
  Reported property: "MIC"
  Observed: "> 64 µg/mL"

Now consider a different compound.
Exercise: Reported MIC for CNC(CC(C)C)C(=O)NC1C(=O)NC(CC(N)=O)C(=O)NC2C(=O)NC3C(=O)NC(C(=O)NC(C(=O)O)c4cc(O)cc(O)c4-c4cc3ccc4O)C(OC3CC(C)(N)C(O)C(C)O3)c3ccc(cc3)Oc3cc2cc(c3OC2OC(CO)C(O)C(O)C2OC2CC(C)(NCc3ccc(Oc4ccccc4)cc3)C(O)C(C)O2)Oc2ccc(cc2)C1O (stereo not drawn) [Compound 184] : what is it?
Solution: ≤ .06 µg/mL

* * *

System: Staphylococcus aureus SA1199B
Format: cell-based
Reported property: MIC

The following compounds have reported results that may help.
- Compound: "CNC(CC(C)C)C(=O)NC1C(=O)NC(CC(N)=O)C(=O)NC2C(=O)NC3C(=O)NC(C(=O)NC(C(=O)O)c4cc(O)cc(O)c4-c4cc3ccc4O)C(OC3CC(C)(NCc4ccc(C(F)(F)F)cc4)C(O)C(C)O3)c3ccc(c(Cl)c3)Oc3cc2cc(c3OC2OC(CO)C(O)C(O)C2OC2CC(C)(NCc3ccc(C(F)(F)F)cc3)C(O)C(C)O2)Oc2ccc(cc2Cl)C1O (stereo not drawn)"
  MIC: "≤ 0.06 µg/mL"
- Compound: "CNC(CC(C)C)C(=O)NC1C(=O)NC(CC(N)=O)C(=O)NC2C(=O)NC3C(=O)NC(C(=O)NC(C(=O)O)c4cc(O)cc(O)c4-c4cc3ccc4O)C(OC3CC(C)(N)C(O)C(C)O3)c3ccc(c(Cl)c3)Oc3cc2cc(c3OC2OC(CO)C(O)C(O)C2OC2CC(C)(NCc3ccc(C(F)(F)F)cc3)C(O)C(C)O2)Oc2ccc(cc2Cl)C1O (stereo not drawn)"
  MIC: "≤ 0.06 µg/mL"

Proceeding to the next compound to report its MIC.
Exercise: Sample CNC(CC(C)C)C(=O)NC1C(=O)NC(CC(N)=O)C(=O)NC2C(=O)NC3C(=O)NC(C(=O)NC(C(=O)O)c4cc(O)cc(O)c4-c4cc3ccc4O)C(OC3CC(C)(N)C(O)C(C)O3)c3ccc(c(Cl)c3)Oc3cc2cc(c3OC2OC(CO)C(O)C(O)C2OC2CC(C)(NCc3ccc([S+]([O-])c4ccccc4)cc3)C(O)C(C)O2)Oc2ccc(cc2Cl)C1O (stereo not drawn) — what was its MIC?
Solution: ≤ 0.06 µg/mL

* * *

# key: entry, value: MIC
System: Staphylococcus aureus S13E
Format: cell-based

- Compound: "CNC(CC(C)C)C(=O)NC1C(=O)NC(CC(N)=O)C(=O)NC2C(=O)NC3C(=O)NC(C(=O)NC(C(=O)O)c4cc(O)cc(O)c4-c4cc3ccc4O)C(OC3CC(C)(N)C(O)C(C)O3)c3ccc(c(Cl)c3)Oc3cc2cc(c3OC2OC(CO)C(O)C(O)C2OC2CC(C)(NCc3ccc(OC(F)(F)C(F)F)cc3)C(O)C(C)O2)Oc2ccc(cc2Cl)C1O (stereo not drawn)"
  MIC: "≤ 0.06 µg/mL"

Exercise: Endpoint output: MIC of CC(C)CC(C(=O)NC1C(=O)NC(CC(N)=O)C(=O)NC2C(=O)NC3C(=O)NC(C(=O)NC(C(=O)O)c4cc(O)cc(O)c4-c4cc3ccc4O)C(OC3CC(C)(NCc4ccc(-c5ccc(Cl)cc5)cc4)C(O)C(C)O3)c3ccc(c(Cl)c3)Oc3cc2cc(c3OC2OC(CO)C(O)C(O)C2OC2CC(C)(NCc3ccc(-c4ccc(Cl)cc4)cc3)C(O)C(C)O2)Oc2ccc(cc2Cl)C1O)N(C)Cc1ccc(-c2ccc(Cl)cc2)cc1.O=C(O)C(F)(F)F (stereo not drawn) . Value?
Solution: > 64 µg/mL

Exercise: Same question, CNC(CC(C)C)C(=O)NC1C(=O)NC(CC(N)=O)C(=O)NC2C(=O)NC3C(=O)NC(C(=O)NC(C(=O)O)c4cc(O)cc(O)c4-c4cc3ccc4O)C(OC3CC(C)(N)C(O)C(C)O3)c3ccc(c(Cl)c3)Oc3cc2cc(c3OC2OC(CO)C(O)C(O)C2OC2CC(C)(NCC3=CCC(C(C)C)CC3)C(O)C(C)O2)Oc2ccc(cc2Cl)C1O (stereo not drawn) this time
Solution: ≤ 0.06 µg/mL
